Target: T1, human big-endothelin-1 (big-ET-1) (human)
T1 construct: 38 amino acid peptide; also called human big-ET-1; hBig-ET-1
T1 peptide: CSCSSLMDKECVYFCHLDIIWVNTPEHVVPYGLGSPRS
Test: SPR (Biacore T200), 37 C, mAb capture, peptide analyte
pKd: −log10 of the molar value.
Entries annotated with measured pKd
Endpoint label: pKd

1) H4H6323P (antibody, V domains shown, Human IgG4 Fc (prefix H4H)) VH: QITLKESGPPLVKPTQTLTLTCTFSGFSLNTNGMGVGWIRQPPGKALEWLTLIYWNDDKRYSPSLKTRLTITKDTSKNQVVLTMTNMDPVDTATYYCARFGSGTYWGQGTLVTVSS VL: DIVMTQSPLSLPVTPGEPASISCRSSQSLLHSYGYNFLDWFLQKPGQSPQLLIYLGSHRASGVPDRFSGSGSGTDFTLKISRVEAEDVGVYYCMQALQTPLTFGGGTKVEIK :: 8.00
2) H4H6353P (antibody, V domains shown, Human IgG4 Fc (prefix H4H)) VH: EVQLVESGGGLVKPGGSLRLSCAASGFSFNYAWMSWVRQAPGKGLEWIGRIKSKINGGTTDYTAPVKGRFTISRDDSKNTLYLQMNSLKTEDTAVYYCRGDEDFWGQGTLVTVSS VL: DVVMTQSPLSLPVTLGQPASISCRSSQSLVYSDGFTYLNWFRQRPGQSPRRLIYKVSNRDSGVPDRFSGSGSGTDFTLRISRVEAEDVGIYYCMQGTHWPYTFGQGTKLEIK :: 8.99
3) H1M6494N (antibody, V domains shown, Hybridoma antibody, human variable domains, mouse constant domains; prefix H1M marks the Fc region (isotype not spelled out)) VH: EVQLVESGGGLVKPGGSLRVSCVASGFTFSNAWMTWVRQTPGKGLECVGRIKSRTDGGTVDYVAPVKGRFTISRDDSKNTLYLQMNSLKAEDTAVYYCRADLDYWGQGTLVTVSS VL: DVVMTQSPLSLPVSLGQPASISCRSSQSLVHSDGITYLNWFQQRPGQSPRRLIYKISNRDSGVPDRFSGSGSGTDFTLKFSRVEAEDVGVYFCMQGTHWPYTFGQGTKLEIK :: 8.15
4) H4H6330P (antibody, V domains shown, Human IgG4 Fc (prefix H4H)) VH: EVQLVESGGGLVQPGGSLRLSCAASGFTFSNYAMSWVRQAPGKGLEWVSAVSGSGVGTYYADSVKGRFTISRDNSKNTLYLQMKSLSAEDTALYYCTKTLGGTHAFDIWGQGTMVTVSS VL: DIQMTQSPSTLSASVGDRVTITCRASQSISRWLAWYQQKPGKAPKLLIYKASSLESGVPSRFSGSGSGTEFTVTINSLQPDDFATYYCQQYNSYSSFGQGTKLEIK :: 7.64

Where these numbers come from: patent US20130216547A1
